# Target or system: recombinant human pancreatic GLK (Homo sapiens)
# Construct: 6-His (N)
# Sequence (P35557 whole entry): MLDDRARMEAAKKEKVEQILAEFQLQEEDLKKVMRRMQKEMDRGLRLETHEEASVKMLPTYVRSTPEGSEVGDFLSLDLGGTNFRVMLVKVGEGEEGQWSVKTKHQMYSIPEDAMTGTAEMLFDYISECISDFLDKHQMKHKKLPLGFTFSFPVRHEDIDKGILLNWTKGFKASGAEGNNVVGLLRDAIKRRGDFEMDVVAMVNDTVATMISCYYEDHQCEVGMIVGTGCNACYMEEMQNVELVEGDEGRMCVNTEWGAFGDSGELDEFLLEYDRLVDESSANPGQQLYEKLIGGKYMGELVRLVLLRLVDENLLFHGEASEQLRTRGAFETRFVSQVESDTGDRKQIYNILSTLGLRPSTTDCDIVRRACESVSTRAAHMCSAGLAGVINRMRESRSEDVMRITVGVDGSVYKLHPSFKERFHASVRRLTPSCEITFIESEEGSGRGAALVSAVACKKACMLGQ
# Assay details: Enzymatic activity of glucokinase (GLK activation, G-6-P dehydrogenase coupled, OD 340 nm)
# Run conditions: read-out: activating activity for glucokinase, EC50
Measurement kind: EC50 (nM)
Reply with just the number (in nM).

Considering COC[C@H](C)Oc1cc(Oc2ccc(S(C)(=O)=O)cc2)cc(C(=O)Nc2nccs2)c1 [Example 11b] , its EC50 with recombinant human pancreatic GLK (Homo sapiens) was recorded as 30
